experiment_notes: Solvent solubility screen
Type: physicochemical
details: acetonitrile/water (50:50), 40 °C, aqueous with cosolvent or surfactant or cyclodextrin, thermodynamic from solid; read-out: Approx. Solubility
readout_label: solubility

Prompt line: Using the record for O=C(O)c1cc(/N=N/c2ccc(S(=O)(=O)Nc3ccccn3)cc2)ccc1O [Sulfasalazine] , report its solubility.
Response line: < 5000 µg/mL

* * *

experiment_notes: Solvent solubility screen
Assay type: physicochemical
details: acetone, 40 °C, organic solvent or mixture, thermodynamic from solid; read-out: Approx. Solubility
readout_label: solubility

Prompt line: Using the record for O=C(O)c1cc(/N=N/c2ccc(S(=O)(=O)Nc3ccccn3)cc2)ccc1O , report its solubility.
Response line: < 5000 µg/mL
